assay: Polymorph screening of solid state drug substances; details: Isopropanol; dried solid after 50 °C 72 hours
property name: XRPD results (Dried)

{"compound": "CCCCCCCCCCCCCCCCOC(=O)Oc1ccc2c3c1O[C@H]1C(=O)CC[C@@]4(O)C(C2)N(CC2CC2)CC[C@]314 [Compound 21]", "value": "Pattern A"}
{"compound": "C=C1CC[C@@]2(O)C3Cc4ccc(OC(=O)OCCCCCCCCCCCCCCCC)c5c4[C@@]2(CCN3CC2CC2)[C@H]1O5 [Compound 19]", "value": "Pattern A"}

###

details: Sesame oil; heating temp. 60 °C, obs. temp. 40 °C
For each entry below, report its Approximate Solubility (mg/mL) in Excipient: Sesame oil value.

IN: Any idea what Approximate Solubility (mg/mL) in Excipient: Sesame oil was measured for CCCCCCCCCCCCCCCC(=O)Oc1ccc2c3c1O[C@H]1C(=O)CC[C@@]4(O)C(C2)N(CC2CC2)CC[C@]314 ?
OUT: >394.8 mg/mL

IN: Could you tell me which Approximate Solubility (mg/mL) in Excipient: Sesame oil is on file for C=C1CC[C@@]2(O)C3Cc4ccc(OC(=O)CCCCCCCCCCCCCCCCC)c5c4[C@@]2(CCN3CC2CC2)[C@H]1O5 ?
OUT: >411.1 mg/mL

IN: # query: Approximate Solubility (mg/mL) in Excipient: Sesame oil of entry CCCCC/C=C\C/C=C\CCCCCCCC(=O)Oc1ccc2c3c1O[C@H]1C(=O)CC[C@@]4(O)C(C2)N(CC2CC2)CC[C@]314
OUT: >406.3 mg/mL

IN: Look at this compound and give its reported Approximate Solubility (mg/mL) in Excipient: Sesame oil. C=C1CC[C@@]2(O)C3Cc4ccc(OC(=O)CCCCCCCCCCCCCCCCCCC)c5c4[C@@]2(CCN3CC2CC2)[C@H]1O5
OUT: 202 to 404 mg/mL

IN: Would you mind telling me what Approximate Solubility (mg/mL) in Excipient: Sesame oil value was observed for CCCCCCCCCCCCCCCCOC(=O)Oc1ccc2c3c1O[C@H]1C(=O)CC[C@@]4(O)C(C2)N(CC2CC2)CC[C@]314 ?
OUT: 101 to 134.5 mg/mL

###

Answer each item with its documented % remaining at time point.
test: Plasma stability assay, monkey plasma; assay type: in vitro ADME, cynomolgus monkey; conditions: 2 μM, 37° C., 1440 min (head)
Give the quantity in %, number only.

IN: Entry under review: C=C1CC[C@@]2(O)C3Cc4ccc(OC(=O)OCCCCCCCCCCCC)c5c4[C@@]2(CCN3CC2CC2)[C@H]1O5 . Reported % remaining at time point?
OUT: 70.1

IN: Would you mind telling me what % remaining at time point value was observed for CCCCCCCCCCCC(=O)OCN1C(=O)CCc2ccc(OCCCCN3CCN(c4cccc(Cl)c4Cl)CC3)cc21 [Aripiprazole Lauroxil, reference compound] ?
OUT: 83.2

IN: Could you tell me which % remaining at time point is on file for C=C1CC[C@@]2(O)C3Cc4ccc(OC(=O)CCCCCCC/C=C/CCCCCCCC)c5c4[C@@]2(CCN3CC2CC2)[C@H]1O5 ?
OUT: 76.5

IN: Fill blank: measured % remaining at time point of the compound CCCCCCCCCCCCCCCC(=O)OC1CCCn2c1nc(C)c(CCN1CCC(c3noc4cc(F)ccc34)CC1)c2=O (centres unmarked) [Paliperidone palmitate, reference compound] is ____.
OUT: 92.5

IN: If you can, please state the reported % remaining at time point value of C=C1CC[C@@]2(O)C3Cc4ccc(OCOC(=O)OCCCCCCCCCCCC)c5c4[C@@]2(CCN3CC2CC2)[C@H]1O5 .
OUT: 97.8
